# protocolSummary: folding stability dG unfold from chymotrypsin proteolysis; higher = more stable
readoutType: folding stability dG unfold
Please format your answer as a value with the unit trailing.

INSERT INTO measurements (primarysequence, result) VALUES
  ('SAGGSAGGSMKITKIEVEENEDGTLTVRLELEFVDPETKETYRVELEITVSKEELEKLLEALKSAGGSAGGS [r12_691_TrROS_Hall]', '4.09 kcal/mol');

Give folding stability dG unfold for each listed item.
1. SAGGSAGGSADLLEELPGLEVVDIERKGNSVVALFRNKETGELVRVTVDADGNITVEVLPLESAGGSAGGSA [r18_26_TrROS_Hall]
2. SAGGSAGGDPGDDYKIGVFPFTFLFGGYRISIPIFRITKDGKPQHIFMAIEIEPLPPPKDPGDNSAGGSAGG [r6_684_TrROS]

Response:
["4.02 kcal/mol", "4 kcal/mol"]

====

Would you mind telling me the reported folding stability dG unfold of each entry?
# protocolSummary: folding stability dG unfold from trypsin proteolysis; higher = more stable
One number for each entry, in kcal/mol.

Some entries whose results are on file:
INSERT INTO assay_data (primarysequence, unitname, resultnumber) VALUES
  ('SAGGSAGGSAGGPKVEVTVKGKPATVEWFPEEGKARVTVPDGRVYVLDLNGDKLEIKPLSAGGSAGGSAGGS [r10_724_TrMRF]', 'kcal/mol', 0.258),
  ('SAGGSLEDFELAGTFPATSEGETLLVTVWKSKEPGKYVVSAYYPSTGIPEVKVVNPEDIEEFFKNLYSAGGS [r8_469_TrMRF]', 'kcal/mol', 1.48),
  ('SAGGRTLEFNMKSNNPNMMENEISKLLRELGFPPGFDIEVNPERDPNGRYTYPITITVDNPELADKISAGGS [r8_85_TrROS]', 'kcal/mol', 0.106);

Give folding stability dG unfold for each listed item.
1. SAGNVVETEEKPVESPLPRKATLTTLTSPTPGVTFRVFTSPENVTTVEVETDGRTETLEPAEAEALLASSAG [r5_157_JUSTAS]
2. SAGWIIKIYFPDKKKEIMISRFPDGQWWMVQVHDKKGEPRQTIPAGMPVDELLKDFPDAKVEVYPFEPPSAG [r5_314_TrROS]
3. SAGGSAGGSAGGSSKVIEVNGYKITVTDNSVEIYNKKTGKKITVNADNPEVQELLKKLLSAGGSAGGSAGGS [r4_353_TrROS_Hall]
4. SAGGSAGGSMSPEEARALAEALAEALGEPDVEVLEVVQTENPAADSTTVTVTIRLPDGSVRVLSAGGSAGGS [r12_508_JUSTAS]

Response:
1. -1.35
2. 1.55
3. 3.6
4. 1.63

====

# protocolSummary: folding stability dG unfold (combined trypsin and chymotrypsin); higher = more stable
readoutType: folding stability dG unfold (kcal/mol)
Give bare numbers, in kcal/mol.

Some entries whose results are on file:
INSERT INTO measurements (primarysequence, resultnumber) VALUES
  ('SAGGSAGGSEFYVIKIKNPETKKEIELVFEGSEEEIKAAIEELAKKPNLKIEIKKIKVSKEELSAGGSAGGS [r12_92_TrROS_Hall]', 1.89),
  ('SAGMVIRDPGDGKYIYISPGSGEIEIFNDGKEKKIPFPPGEEMEIEIDPDDGTITITFPNNGRELEIPLSAG [r5_858_TrROS]', 0.699),
  ('SAGGSAGGSAGGGSFVLTRHTRTGLRRRVYFDPETGELTVELETGTESRTTLSPLSPDLSAGGSAGGSAGGS [r10_376_TrMRF]', 0.489),
  ('SAGGSDLKVQVNKDGNTIRIQLPDGKPIFEIPFYRYDPDDGKPLEPWTIRMRLDPDGNIKIEEITPSAGGSA [r2_362_TrROS]', 1.68),
  ('SAGGSAGGSAGGWAFMWVIEIEMPPEQMPPEDMKKFPNMRIEIEPYWVPIKIDPENGELRSAGGSAGGSAGG [r17_310_TrROS]', 2.5);

Give folding stability dG unfold for each listed item.
1. SAGGSAGGDEVKIEVEVKKVKVKVRVRVKNEDGEEKEVEKEFEVEVVKVKIEFKSPEEAKKLGLSAGGSAGG [r6_149_TrROS_Hall]
2. SKEKVKVEIKLTVTKVFPPEELEKDPKTGKYRNKDTGKWFEPPKVVVKELTLTIEMSKEEVEKLLKELLKSA [r9_165_TrROS_Hall]

Response:
[1.11, 2.29]

Where do the numbers come from? From the supplement of paper PMC12764529.
